Test: protein stability index of a GFP-peptide fusion (GPS, HEK-293T) (PSI 1-6); higher = more stable;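 further: 24-mer peptide tiles fused after GFP, lentivirally expressed, FACS-sorted into six equal bins by GFP/DsRed ratio, decoded by Illumina sequencing, PSI is the read-weighted mean bin number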
Settings: treatment: DMSO; c terminus: a fixed tail appended
Binned protein stability index; ranges: lower bin (below 3), middle bin (3 to below 4), upper bin (4 or more)

{"recordSequence": "AQMAKAAAEERALFTDRMATRSTT [WEE1]", "group": "upper bin"}
{"recordSequence": "LKFLEENKIKVMHKQLLLFHNAVS [ARFIP2]", "group": "lower bin"}
{"recordSequence": "PPLTRQIAVKTLGIGKNVICDRTA [GFOD1]", "group": "middle bin"}
{"recordSequence": "EPTEVEEVVPALEPTETLLSEKEI [BCL2L13]", "group": "upper bin"}
{"recordSequence": "YDLEYWAFHDGQRSRLRPRDDLDR [TRIM14]", "group": "middle bin"}
{"recordSequence": "RENEELSARYLSQCQEAEQARAEL [FBF1]", "group": "upper bin"}
{"recordSequence": "FFIGFTALVIMWQKHYVYGPLPQS [COX4I1]", "group": "middle bin"}
{"recordSequence": "RMLQREGCFRSQGASLRLAVEDGL [M1AP]", "group": "middle bin"}
{"recordSequence": "KLGALLSRCRKLVEYFQQSAVAMY [ZBED1]", "group": "middle bin"}
{"recordSequence": "MSEIRFTNLTWDQVITLDQVLDEV [TENT5D]", "group": "lower bin"}
{"recordSequence": "RNTSWGVVQEPPGRASRFLQSISW [TLE6]", "group": "lower bin"}
{"recordSequence": "MAMQMQLEANADTSVEEESFGPQP [RAD51]", "group": "upper bin"}
{"recordSequence": "KRKKLSTWKQELLKLMDRHKKDCA [ZNF75A]", "group": "lower bin"}
{"recordSequence": "PAFPFIYTPTAEDSAQMQNGGPST [ANKRD40]", "group": "upper bin"}
{"recordSequence": "FQEQVEKLKALHVDSAEYSCLKAI [NR2F2]", "group": "middle bin"}
{"recordSequence": "SDHCITSSDMMDSSSFSNLDLSEE [VDR]", "group": "upper bin"}
{"recordSequence": "IYSTDLHKLDLNTREWTQLKPNNL [KLHDC10]", "group": "lower bin"}
{"recordSequence": "EANNLAAAASAKDIYYNNMEEVCG [ATL3]", "group": "upper bin"}
{"recordSequence": "RLVQLLVRAHQDTQRRTSMGGTQQ [CTNNB1]", "group": "lower bin"}
{"recordSequence": "IQVVLNGMESYQEVTVQRNCCLTL [ZER1]", "group": "middle bin"}
{"recordSequence": "YIYYNEKYGGPNHHLPLPDNWKSQ [CPN1]", "group": "lower bin"}
{"recordSequence": "VKTWFQNQRMKSKRWQKNNWPKNS [NANOGP8]", "group": "lower bin"}
{"recordSequence": "RWPFDHNDFGVFLCKLFPFLQKSS [EDNRA]", "group": "lower bin"}
{"recordSequence": "GLDPCLLEDELDKSVQGTGLAFIA [SLC6A17]", "group": "middle bin"}
{"recordSequence": "SCNTWPSMPSYSSCTVTTVQPMDR [TBX5]", "group": "middle bin"}
{"recordSequence": "RYAVVLNATWLVNSAAHLFGYRPY [SCD]", "group": "lower bin"}
{"recordSequence": "SYTTTTTITAPPSRVLQNGGDKLE [SCD]", "group": "upper bin"}
{"recordSequence": "TPTSLSSLSNAVANTMEHLSLLDN [FBXO33]", "group": "upper bin"}
{"recordSequence": "GRATKRRKKSGDLKKAKVQVERMR [FBXO34]", "group": "upper bin"}
{"recordSequence": "MATQADLMELDMAMEPDRKAAVSH [CTNNB1]", "group": "upper bin"}
{"recordSequence": "TGECKELEKKNEALKERADSLAKE [ATF4]", "group": "upper bin"}
{"recordSequence": "NSLITAPGEFSDASMSPDATKPSH [SMAD6]", "group": "upper bin"}
{"recordSequence": "ESRALSTSSNLGSQYQCENGVSGP [TBX5]", "group": "upper bin"}
{"recordSequence": "QLRNCLRILMGELSNHHDHHDEFC [BEX3]", "group": "lower bin"}
{"recordSequence": "DRSTEPDRLQVFHKRAIMPYGVYK [ATE1]", "group": "middle bin"}
{"recordSequence": "NKGTRFSEAWEYFHLAPARAGHHP [ZBED2]", "group": "lower bin"}
{"recordSequence": "EVQHLREEKSKQFLDLMETIDKQR [LRRC45]", "group": "upper bin"}
{"recordSequence": "GRLPRIPQVLSQEFTELLKVMIHP [WEE1]", "group": "lower bin"}
{"recordSequence": "FVRGDHRDNSPFDGPGGNLAHAFQ [MMP1]", "group": "lower bin"}
{"recordSequence": "RCGVGVSVLDDLLYAVGGHDGSSY [KLHL20]", "group": "lower bin"}
{"recordSequence": "KKNSNMTYEKLSRAMRYYYKREIL [ELF3]", "group": "lower bin"}
{"recordSequence": "AMEPEPAPAPAPEEWLDILGNGLL [FKBP8]", "group": "upper bin"}
{"recordSequence": "NHLPDPEIFRQRFRQFGYQDSPGP [ZNF24]", "group": "middle bin"}
{"recordSequence": "VAPPEDKESESEAKVDGETASDSE [CDS2]", "group": "upper bin"}
{"recordSequence": "KCRSTISAEKCGPPPPIDNGDITS [CFHR2]", "group": "upper bin"}
{"recordSequence": "NVTRHQAECALNERGVEGDFLIRD [NCK2]", "group": "upper bin"}
{"recordSequence": "GDEISIKKKNTNKQEMGTYLRFIV [ZMYND11]", "group": "lower bin"}
{"recordSequence": "SNSEKAKNIFRIRFHDPSPAQSHT [NET1]", "group": "middle bin"}
{"recordSequence": "LSLNMDNLQDTLEAASFLQILPVL [KLHL13]", "group": "lower bin"}
